Ref: patent US20210188980A1

# MEASURED TARGET: T1, human PD-1 ECD/Fc fusion protein (human)
# T1 construct: also called huPD-1/Fc; HuPD-1 ECD/Fc
# METHOD NOTES: RBA ELISA on huPD-1/Fc; competitor biotin-huPD-L1/Fc
We begin with a simple list: items and their reported TOP inhibition (%).
# value in %; strip the unit string

Below, 4 binders whose answers are already recorded.
• mAb714 (antibody, V domains shown, murine hybridoma anti-PD-1 mAb) VH: EVHLQQSGPELVKPGASVKIFCKASGYTFTDNNVEWVKQSHGKSLEWIGDINPNNGDTLYSQYFKDKATLTVDKSSTTAYMELRSLTSEDTGLYYCARGKSDQFDYWGQGTTLTVSS VL: DIQMTQSPASQSASLGESVTITCLASQTIGTWLAWYQQKPGKSPQLLIYAATSLADGVPSRFSGSGSGTKFSFKISSLQGEDFVSYYCQQLYSSPWTFGGGTKLEIK = 92.3
• mAb701 (antibody, V domains shown, murine hybridoma anti-PD-1 mAb) VH: EVLLVESGGGLVKPGGSLKLSCAASGFTFSSYMMSWIRQTPERRLEWVASMSGGGRDTYYPDSVKGRFTISRDNAKNTLYLQMSSLRSEDTALYYCARRGTYAMDYWGQGTSVTVSS VL: DIQMTQSPASQSASLGESVTITCLASQTIGTWLTWYQQKPGKSPQLLIYAATSLADGVPSRFSGSGSGTKFSFKISSLQAEDFVSYYCQQLYSTPWTFGGGTKLEIK = 87.1
• mAb719 (antibody, V domains shown, murine hybridoma anti-PD-1 mAb) VH: EVKLVESGGGLVKPGGSLKLSCTASGFSFSSHLMSWVRQTPEKRLEWVAAISGGGADTYYPDSVKGRFTISRDNAKNTLYLQMRSLRSEDTALYYCTRQILAFDSWGQGTTLTVSS VL: DIQMNQSPSSLSVSLGDTITITCHASQNIYVWLNWYQQKPGNIPKLLIYKASNLHTGVPSRFSGGGSGTGFTLTISSLQPEDIATYYCQQGQSYPWTFGGGTKLEIK = 96.5
• mAb703 (antibody, V domains shown, murine hybridoma anti-PD-1 mAb) VH: DVQLQESGPGLVKPSQSLSLTCSVTGYSITTGYYWNWIRQFPGNKLEWMGYMSYDGNNNYNPSLKNRISITRDTSKNQFLLRLNSVTTEDTATYFCARDRGTTILGGTMDYWGQGTSVTVS VL: SIVMTQTPKFLFVSAGDRVTIACKASQSVSNDVAWYQQKPGQSPKLLIYYAFYRYTGVPDRFTGSGYGTDFTFTISTVQAEDLAVYFCQQDYSSPWTFGGGTKLEIK = 96

Then this binder:
What does the data say about its TOP inhibition (%)? Entry: mAb709 (antibody, V domains shown, murine hybridoma anti-PD-1 mAb) VH: EVKLVESGGGLVKPGGSLKLSCAASGFTFSFYTMSWVRQTPEKRLEWVATISGGGRDTYYPDSVKGRFTISRDNAKNTLYLHMSSLRSEDTALYYCAGQGGNYLFAYWGQGTLVTVSA VL: DIVMTQSHKFMSTSVGDSVTITCKASQDVNTVVAWYQQKPGQSLKVLISWASTRHTGVPARFTGSGSGTDYTLTISSVQAEDLALYYCQQHYTTPYTFGGGTQLEIK
91.6
